# MEASUREMENT PROTOCOL: Antiproliferative activity against PTEN-deficient human U87 cells after 72 hrs by ATP ViaLight assay
# Format: functional, cell-based, U-87MG ATCC
# CONDITION DESCRIPTION: U-87 MG
pEC50: −log10 of the molar value.
ASSAY READOUT: pEC50

**Q:** Fill in: pEC50 of "O=C(N[C@@H](COc1ccc2[nH]c(=O)[nH]c2c1)c1ccccc1)c1cccn(Cc2ccc(F)c(F)c2)c1=O" is ___
**A:** < 5.05

Attribution: ChEMBL document CHEMBL2331244
